Reported pKd is given for each of the following binders.
Target: T1, Smad2-K420A (UniProt Q62432 1-467, K420A)
T1 construct: Smad2, full length, point mutant K420A; source: E. coli BL21 RIL codon plus, purified (Ni-NTA)
T1 sequence (Q62432 whole entry K420A): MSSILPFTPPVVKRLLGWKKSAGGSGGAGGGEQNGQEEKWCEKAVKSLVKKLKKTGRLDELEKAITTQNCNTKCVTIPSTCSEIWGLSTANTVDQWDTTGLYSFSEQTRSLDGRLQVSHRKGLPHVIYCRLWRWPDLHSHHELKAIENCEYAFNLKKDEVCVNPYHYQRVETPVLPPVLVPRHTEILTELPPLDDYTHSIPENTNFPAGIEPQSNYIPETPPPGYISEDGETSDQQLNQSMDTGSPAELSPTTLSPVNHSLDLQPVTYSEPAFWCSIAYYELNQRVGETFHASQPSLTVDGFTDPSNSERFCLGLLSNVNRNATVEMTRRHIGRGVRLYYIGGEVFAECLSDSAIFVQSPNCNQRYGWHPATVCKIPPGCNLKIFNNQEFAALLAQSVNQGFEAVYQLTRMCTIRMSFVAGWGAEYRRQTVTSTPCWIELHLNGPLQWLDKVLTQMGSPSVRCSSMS
Assay: fluorescence polarisation; fluorescence anisotropy; F-Ahx-labelled peptide fixed (2.5 μM in the methods, 2.5 nM in the legend), Smad2 WT or mutant varied (0-250 μM in the methods, 0-150 μM in the legend); 20 mM Tris pH 7.9, 160 mM NaCl; 10 min incubation
Conditions: both partners purified
Square brackets hold non-standard residues; d marks the D form. Ends that are not written are not given here. fluorescein = fluorescein-6-aminohexanoyl (F-Ahx); pS = N[C@@H](COP(=O)(O)O)C(=O)O; Ahx = NCCCCCC(=O)O
// pKd: -log10(molar conc.)

Note to self: pKd recorded for {fluorescein-Ahx}-YDMTT[pS]G[pS]G[pS]GLPLL (type I TGF-β receptor (TβRI), GS region, triply phosphorylated; also called GS peptide; TβRI peptide; source: synthetic peptide; bought: AlanScientific) [TβRI GS region peptide (F-Ahx-YDMTTpSGpSGpSGLPLL)] was 3.70

New cases:
Note to self: pKd recorded for {fluorescein-Ahx}-ADNKDNGT (type I TGF-β receptor (TβRI), L45 loop; also called L45 peptide; L45 loop peptide; source: synthetic peptide; bought: AlanScientific) [TβRI L45 loop region peptide (F-Ahx-ADNKDNGT)] was 4.00

All figures here come from paper PMC8567202.
